# tested-target: muscarinic cholinergic receptor (high affinity agonist conformation)
# assay-explanation: [3H]-cis-Methyldioxolane (3H-CD) Binding Assay (High Affinity), cerebral cortex
# test-settings: 3H-CD 1.0 nM, rat cerebral cortex, 25° C., 120 minutes, pH 7.4; read-out: Ki, ^3 H-CD (ctx)
Where a name gives a salt, the structure may show the parent alone.
value-type: pKi
Please treat pKi as minus the base-10 logarithm of the molar concentration.

Challenge: Could you share which pKi value was measured for c1cnc(N2C[C@H]3C[C@@H]2CN3)cn1 [Example 11, hydrochloride] ?
Response given: 7.00

Challenge: Input `Cc1noc(N2C[C@@H]3C[C@H]2CN3)n1`
Response given: 5.27

Challenge: Try this compound next: `CN1C[C@@H]2C[C@H]1CN2c1cncc(Cl)n1`
Response given: 5.70

Challenge: Do the same for `CN1C[C@@H]2C[C@H]1CN2c1ccccc1[N+](=O)[O-]` please
Response given: 5.96

Challenge: And for `CC(C)(C)OC(=O)N1C[C@@H]2C[C@H]1CN2c1ncns1` ?
Response given: 4.01

Values were extracted from patent US5478939A.
